Measured values drawn from ChEMBL document CHEMBL1201862 for this set.

Each record here notes measured GI50.
# Test system: HCT-15
# Protocol text: NCI tumour cell line growth inhibition, 48 h

Below, 3 compounds whose answers are already recorded.
>>> experimental_result("Cn1c(=O)sc2cc(C(=S)N3CCOCC3)ccc21")
"> 92.3 µM"
>>> experimental_result("O=C1Nc2ccccc2/C1=C1/Nc2ccccc2/C1=N\\OCCNCC(O)C(O)C(O)C(O)CO (stereo not given)")
"> 50 µM"
>>> experimental_result("Cc1cn(C2CC(O)C(COC(=O)c3ccccc3)O2)c(=O)[nH]c1=O (stereo not given)")
"> 100 µM"

Query block: Field request: GI50 | item: CC(=O)n1cc(CC(C)O)c(=O)[nH]c1=O (stereo not given)
Result block: > 100 µM

Query block: Moving on to COc1ccc(C2(CC(C)O)SCCCS2)cc1 (stereo not given)
Result block: > 100 µM

Query block: Moving on to CCN(CC)c1ccc(C2SCC(=O)N2c2ccc(NC(=O)c3ccc(N4C(=O)CSC4c4ccc(N(CC)CC)cc4)cc3)cc2)cc1 (stereo not given)
Result block: > 100 µM

Query block: Moving on to CC(=O)NC1C(OCc2ccccc2)OC(CO)C(O)C1OCC(=O)NC(C)C(=O)NC(CCC(=O)NCCCCCNc1c2ccccc2nc2cccc([N+](=O)[O-])c12)C(N)=O (stereo not given)
Result block: < 0.0001 µM

Query block: Moving on to "NC(=O)Nc1ccc(S(=O)(=O)Nc2ccc(S(N)(=O)=O)cc2)cc1"
Result block: > 100 µM

Query block: Moving on to "Cc1cccc(NC(=O)/C=C/c2ccccc2)c1C"
Result block: > 100 µM

Query block: Moving on to "Cc1ccccc1-n1c(=O)c2ncn(CCCl)c2n(-c2ccccc2C)c1=S"
Result block: > 100 µM

Query block: Moving on to "CCOC(=O)c1c(-c2ccccc2)c(-c2ccccc2)cn1C"
Result block: > 10 µM

Query block: Moving on to "C[P+](C)(C)c1ccccc1"
Result block: > 100 µM

Query block: Moving on to c1ccc(C2C3=C(CCCC3)Nc3nc4cc5ccccc5cc4n32)cc1 (stereo not given)
Result block: > 100 µM

Query block: Moving on to "COc1ccc(/C(Cl)=C(\CN(C)C)c2ccc(OC)c(OC)c2)cc1OC.[B]"
Result block: > 100 µM

Query block: Moving on to CC(C(=O)O)c1ccc(-n2nnc3c(=O)[nH][nH]c(=O)c32)cc1 (stereo not given)
Result block: > 100 µM

---

# Test system: EKVX
# Protocol text: NCI tumour cell line growth inhibition, 48 h
Active and inactive are the calls of the source. Cut-off read from the data, not from the text of the source: active = GI50 up to about 1.1 µM and inactive = higher.
Each record here notes measured GI50.

Below, 3 molecules whose answers are already recorded.
>>> experimental_result("CCP(=O)(OC)C1=CCN(C(=O)OCC[Si](C)(C)C)CC1 (stereo not drawn)")
"> 100 µM (inactive)"
>>> experimental_result("COc1ccc(/C=N/NC(=O)c2ccc(O)c(CN(C)C)c2)cc1")
"> 100 µM (inactive)"
>>> experimental_result("COc1ccc(/C(Cl)=C(\\CN(C)C)c2ccc(OC)c(OC)c2)cc1OC.[B]")
"> 100 µM (inactive)"

Query block: Field request: GI50 | item: "O=P1(O)c2ccccc2Nc2cc(C(F)(F)F)ccc21"
Result block: > 100 µM (inactive)

Query block: Moving on to "c1ccc(C2=Nn3c(CCCCCCCCc4nnc5n4N=C(c4ccccc4)CS5)nnc3SC2)cc1"
Result block: 76.2 µM (inactive)

Query block: Moving on to CCCCCCCCCCCCCCCCCCNc1ccn(C2OC(COP(=O)(O)OCC3OC(n4cc(C)c(=O)[nH]c4=O)CC3O)C(O)C2O)c(=O)n1 (stereo not drawn)
Result block: 19.4 µM (inactive)

Query block: Moving on to "CSc1cc(N)ccc1/N=N/c1ccc(S(N)(=O)=O)cc1"
Result block: 31 µM (inactive)

Query block: Moving on to "C=CCSc1nn(CC=C)cc2ncnc1-2"
Result block: > 100 µM (inactive)
